Tested on: HT-29
methodSummary: Antiproliferative activity against human HT-29 cells assessed as inhibition of cell proliferation measured after 48 hrs by SRB assay
Assay type: functional, cell-based
recordedConditions: HT-29, 48 h
Below, each entry is listed with its recorded IC50.

COc1cc([C@@H]2c3cc4c(cc3[C@@H](n3cc(CNC(=O)[C@@H]5O[C@H](OC)[C@H](N)[C@@H](O)[C@@H]5O)nn3)[C@H]3COC(=O)[C@H]23)OCO4)cc(OC)c1O
> 100 µM
COc1cc([C@@H]2c3cc4c(cc3[C@@H](n3cc(CNC(=O)[C@@H]5O[C@H](OC)[C@H](NC(C)=O)[C@@H](O)[C@@H]5O)nn3)[C@H]3COC(=O)[C@H]23)OCO4)cc(OC)c1O
> 100 µM

Kindly review the next compound as well.
Enter reported IC50 observed with HT-29 for `COc1ccc(/C=C\c2cc(OC)c(OC)c(OC)c2)cc1O`
> 1 µM

FYI, the data here is from ChEMBL document CHEMBL5032537.
